Just for reference, ChEMBL document CHEMBL5532638 is where these values come from.

# Study target: Falcipain 2 (Plasmodium falciparum)
# Sequence (Q9N6S8 whole entry): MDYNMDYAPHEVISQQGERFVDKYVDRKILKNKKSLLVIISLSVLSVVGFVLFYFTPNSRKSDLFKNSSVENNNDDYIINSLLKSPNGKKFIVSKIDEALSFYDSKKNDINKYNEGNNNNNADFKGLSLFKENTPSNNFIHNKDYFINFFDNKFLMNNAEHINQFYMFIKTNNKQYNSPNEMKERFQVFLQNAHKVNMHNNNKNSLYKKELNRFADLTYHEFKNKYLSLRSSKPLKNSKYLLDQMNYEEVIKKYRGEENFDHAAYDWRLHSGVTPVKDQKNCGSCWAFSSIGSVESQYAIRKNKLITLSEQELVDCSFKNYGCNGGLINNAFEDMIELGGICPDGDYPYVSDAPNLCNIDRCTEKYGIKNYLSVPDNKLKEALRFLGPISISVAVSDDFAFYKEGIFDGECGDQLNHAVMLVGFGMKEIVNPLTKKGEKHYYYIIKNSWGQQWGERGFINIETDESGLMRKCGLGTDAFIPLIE
# Test: Inhibition of recombinant Plasmodium falciparum FP2
Parameter: pIC50
Remember the convention: pIC50 equals -log10 of concentration in molar.

Problem: Requested read-out pIC50, target or system Falcipain 2 (Plasmodium falciparum), entry `O=[N+]([O-])c1ccc(-n2cc(COc3cccc4nc(Cl)ccc34)nn2)cc1`
Solution: 4.79

====

# Test: Selectivity index, ratio of CC50 for human erythrocytes to IC50 for Plasmodium falciparum Dd2
# Type: toxicity
# Condition notes: read-out: Ratio CC50/IC50
Parameter: selectivity ratio
Reply with the value as a number alone.

Problem: Query (compound): `O=[N+]([O-])c1ccc(Cn2cc(CO)nn2)cc1` ; field requested: selectivity ratio
Solution: 161
